- measurement-target: T1, Human IL2Rγ extracellular domain expressed with a C-terminal myc-myc-hexahistidine tag (human)
- T1 construct: also called hIL-2Rg-MMH; hIL-2RG-MMH
- T1 chain: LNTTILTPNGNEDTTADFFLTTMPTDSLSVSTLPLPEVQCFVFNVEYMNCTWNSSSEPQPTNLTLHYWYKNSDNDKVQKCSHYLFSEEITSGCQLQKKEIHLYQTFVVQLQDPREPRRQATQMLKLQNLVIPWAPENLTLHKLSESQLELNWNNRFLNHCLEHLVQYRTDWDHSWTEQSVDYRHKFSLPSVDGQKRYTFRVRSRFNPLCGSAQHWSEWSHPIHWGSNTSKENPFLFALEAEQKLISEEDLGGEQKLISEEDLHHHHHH
- test-method-notes: SPR, captured mAb, 37C, dissociation pH 6.0
Rule: 100 nM Ag Bound (RU) below 100 RU gives Y. Equal to or above 100 RU gives N.

Lab log: compare recorded 100 nM Ag Bound (RU) with 100 RU; is it strictly lower for H4H13538P (antibody, human IgG4 S228P, kappa, V domains shown, anti-IL2Rgamma mAb expressed with human IgG4 Fc) VH: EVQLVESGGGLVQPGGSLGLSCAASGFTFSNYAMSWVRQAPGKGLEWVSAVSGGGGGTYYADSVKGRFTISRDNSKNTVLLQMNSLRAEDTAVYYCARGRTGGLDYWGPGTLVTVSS VL: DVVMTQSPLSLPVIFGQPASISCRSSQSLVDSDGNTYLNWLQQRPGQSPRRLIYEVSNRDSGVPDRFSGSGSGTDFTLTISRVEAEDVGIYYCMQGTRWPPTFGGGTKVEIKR ?
N

Lab log: compare recorded 100 nM Ag Bound (RU) with 100 RU; is it strictly lower for H4H12874P (antibody, human IgG4 S228P, kappa, V domains shown, anti-IL2Rgamma mAb expressed with human IgG4 Fc) VH: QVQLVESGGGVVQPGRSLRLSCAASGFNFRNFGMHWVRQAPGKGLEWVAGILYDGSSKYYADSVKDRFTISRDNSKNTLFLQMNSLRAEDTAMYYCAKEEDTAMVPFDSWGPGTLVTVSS VL: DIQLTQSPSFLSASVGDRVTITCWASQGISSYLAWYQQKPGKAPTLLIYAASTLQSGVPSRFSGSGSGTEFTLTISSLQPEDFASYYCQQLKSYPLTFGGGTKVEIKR ?
Y

Lab log: compare recorded 100 nM Ag Bound (RU) with 100 RU; is it strictly lower for H4H12884P (antibody, human IgG4 S228P, kappa, V domains shown, anti-IL2Rgamma mAb expressed with human IgG4 Fc) VH: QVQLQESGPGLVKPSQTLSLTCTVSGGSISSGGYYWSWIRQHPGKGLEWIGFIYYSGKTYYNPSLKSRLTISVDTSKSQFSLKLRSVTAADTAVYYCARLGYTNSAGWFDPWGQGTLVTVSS VL: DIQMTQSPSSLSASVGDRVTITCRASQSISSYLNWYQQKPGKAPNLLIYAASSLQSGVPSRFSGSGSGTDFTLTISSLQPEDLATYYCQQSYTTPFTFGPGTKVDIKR ?
N

Lab log: compare recorded 100 nM Ag Bound (RU) with 100 RU; is it strictly lower for H4H12871P (antibody, human IgG4 S228P, kappa, V domains shown, anti-IL2Rgamma mAb expressed with human IgG4 Fc; also called REGN9434) VH: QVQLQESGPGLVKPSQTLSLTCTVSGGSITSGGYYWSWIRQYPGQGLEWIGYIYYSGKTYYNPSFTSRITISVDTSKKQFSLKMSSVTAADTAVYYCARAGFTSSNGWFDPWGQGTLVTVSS VL: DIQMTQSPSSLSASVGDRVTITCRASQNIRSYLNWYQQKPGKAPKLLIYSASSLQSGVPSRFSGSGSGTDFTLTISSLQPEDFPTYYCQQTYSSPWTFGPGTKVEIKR ?
N

Lab log: compare recorded 100 nM Ag Bound (RU) with 100 RU; is it strictly lower for H4H12890P (antibody, human IgG4 S228P, kappa, V domains shown, anti-IL2Rgamma mAb expressed with human IgG4 Fc) VH: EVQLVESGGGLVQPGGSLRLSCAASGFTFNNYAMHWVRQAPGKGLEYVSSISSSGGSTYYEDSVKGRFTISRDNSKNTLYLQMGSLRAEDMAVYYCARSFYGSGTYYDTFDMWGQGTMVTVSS VL: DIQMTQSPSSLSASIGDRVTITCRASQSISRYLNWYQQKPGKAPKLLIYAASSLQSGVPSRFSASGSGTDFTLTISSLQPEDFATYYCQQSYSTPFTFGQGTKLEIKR ?
Y

Lab log: compare recorded 100 nM Ag Bound (RU) with 100 RU; is it strictly lower for H4H13541P (antibody, human IgG4 S228P, kappa, V domains shown, anti-IL2Rgamma mAb expressed with human IgG4 Fc) VH: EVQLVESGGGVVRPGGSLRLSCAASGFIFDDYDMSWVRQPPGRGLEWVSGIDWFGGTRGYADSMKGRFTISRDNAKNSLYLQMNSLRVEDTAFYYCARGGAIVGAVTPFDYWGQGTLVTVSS VL: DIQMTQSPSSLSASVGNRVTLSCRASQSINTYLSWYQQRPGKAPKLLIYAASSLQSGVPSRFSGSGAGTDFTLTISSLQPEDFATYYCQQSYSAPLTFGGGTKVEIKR ?
Y

Lab log: compare recorded 100 nM Ag Bound (RU) with 100 RU; is it strictly lower for H4H12900P (antibody, human IgG4 S228P, kappa, V domains shown, anti-IL2Rgamma mAb expressed with human IgG4 Fc) VH: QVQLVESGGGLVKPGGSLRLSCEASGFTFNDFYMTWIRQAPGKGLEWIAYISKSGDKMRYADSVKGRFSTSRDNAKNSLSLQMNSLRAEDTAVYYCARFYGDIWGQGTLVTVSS VL: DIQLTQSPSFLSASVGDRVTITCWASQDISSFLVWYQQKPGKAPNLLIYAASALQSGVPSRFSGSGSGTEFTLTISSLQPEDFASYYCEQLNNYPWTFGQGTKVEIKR ?
N

All figures here come from patent US20200247894A1.
